# experiment_notes: Cell Viability - Renal Proximal Tubule (AID 545);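 note: cells exposed to compound for 40 hours; nearly all actives have a fitted effect of over 40% in size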
# particulars: renal proximal tubule cells viability, primary cells of rat origin
Records with an inconclusive call do not appear. Activity calls are given as the source filed them. Calls come from the whole dose curve; as a rule, active = well fitted cell-killing curve with a large enough effect; inconclusive = small, poorly fitted or top-dose-only effect; inactive = flat fitted curve, though single readings scatter.
Your response should consist of one outcome taken from t = active, f = inactive

Input line: Recorded test call requested for Cc1ccc(O)c(N)c1
Output line: f

Input line: Tell me the recorded outcome of this test for O=[N+]([O-])c1cccc(I)c1 .
Output line: f

Input line: Please indicate how the test categorized CCOc1ccc2nc(N)sc2c1 .
Output line: f

Input line: Dear all, I need the recorded test outcome for CC(=O)c1ccc(Cl)c(Cl)c1Cl , thank you.
Output line: f

Input line: For CC(C)OCC1CO1 (configuration not stated) , which call appears in the assay record?
Output line: f

Input line: State the result this test recorded for CC(=O)Nc1cccc(C)c1 .
Output line: f

Input line: What did this assay record as the result for O=C(O)/C=C/c1ccc(/C=C/C(=O)O)cc1 ?
Output line: f

Input line: Tell me the assay call for O=C(OCC1CO1)C1CCCCC1C(=O)OCC1CO1 (configuration not stated) please.
Output line: f

Input line: Fill in: this test's call for C=C(C#N)C(=O)OCC is ___
Output line: f

Input line: Short answer needed: outcome of this test for CC(C)S ?
Output line: f

Input line: Per the assay record, what outcome was assigned to Clc1nc2ccccc2nc1Cl ?
Output line: f

Input line: What call does the record list for Nc1cc([N+](=O)[O-])ccc1O ?
Output line: f

Input line: How was O=CC(=O)c1ccccc1 classified in this test?
Output line: f

Input line: Could you check what this test reported for Nc1ccc(N=Nc2ccccc2)c(N)c1 ?
Output line: f

Input line: Could you kindly confirm the outcome this assay logged for CCc1ccc(C(c2ccc(CC)cc2)C(Cl)Cl)cc1 ?
Output line: f

Input line: Hi team, can someone confirm the assay call for O=C1c2ccccc2C(=O)C1(O)O ?
Output line: t

Input line: How did this test come out for Nc1ccc(-c2ccc(N)c(O)c2)cc1O ?
Output line: f

Input line: Assay result, entry CCNC(=S)NCC — outcome?
Output line: f

Input line: What did the test return for Nc1ccccc1O ?
Output line: f

Input line: How did this test come out for OCC(CO)(CBr)CBr ?
Output line: f

Input line: Outcome? CCCCC(CC)COC(=O)COc1ccc(Cl)cc1Cl (configuration not stated)
Output line: f

Input line: Outcome? Brc1ccc(-c2ccccc2)cc1
Output line: f

Input line: Fill in: this test's call for c1c[nH]cn1 is ___
Output line: f

Input line: Field: outcome | Entry: O=c1[nH]ncc2ccccc12
Output line: f

Input line: Kindly provide the recorded test outcome for the following compound: COc1ccc([N+](=O)[O-])cc1N
Output line: f

Input line: // param item: CCCCCCCCC1CO1 (configuration not stated) ; yields the recorded call
Output line: f

Input line: How was c1ccc(SCCSc2ccccc2)cc1 classified in this test?
Output line: f

Input line: Per the assay record, what outcome was assigned to Cc1ccc2ccc3cccc4ccc1c2c34 ?
Output line: f

Input line: Each compound tested received a call. Report the one for O=C(O)c1ccc([N+](=O)[O-])cc1 .
Output line: f

Input line: Recorded test outcome, item O=[N+]([O-])c1cc(Cl)c(Cl)c(Cl)c1Cl
Output line: f

Input line: I would be grateful if you could indicate the recorded call for OCC(CBr)(CBr)CBr .
Output line: f

Input line: Could you check what this test reported for CCCCC(CC)COP(=O)(OCC(CC)CCCC)OCC(CC)CCCC (configuration not stated) ?
Output line: f

Input line: # lookup: test call for C=CC(=O)CC
Output line: f

Input line: Please let me know the test result on file for C1CCCNCC1 .
Output line: f

Input line: Please let me know the test result on file for C=CC(C)(O)CCCC(C)CCCC(C)CCCC(C)C (configuration not stated) .
Output line: f

Input line: For Cc1ccccc1OCC1CO1 (configuration not stated) , what call appears in the results of this test?
Output line: f

Input line: Entry NC(=O)Nc1nc2ccccc2[nH]1 : call = ?
Output line: f

Input line: Which outcome did this test record for the compound O=C(OCc1ccccc1)c1ccccc1O ?
Output line: f

Input line: # outcome recorded in this test, key = c1ccc(CSCc2ccccc2)cc1
Output line: f

Input line: Test call, this compound: Cc1ccc(N)cc1[N+](=O)[O-]
Output line: f

Input line: What outcome does the record of this test show for CCCCC(CC)COCCCN (configuration not stated) ?
Output line: f

Input line: What was the test verdict on CC(C)(C)C(=O)C1C(=O)c2ccccc2C1=O ?
Output line: f

Input line: Kindly provide the recorded test outcome for the following compound: c1ccc(COCc2ccccc2)cc1
Output line: f

Input line: Hey, what did the test say about Brc1cc(Br)c(Oc2cc(Br)c(Br)cc2Br)cc1Br ?
Output line: f

Input line: What outcome does the record of this test show for Cc1c(C(=O)O)c(O)cc2c1C(=O)c1c(O)c([C@H]3O[C@H](CO)[C@@H](O)[C@H](O)[C@H]3O)c(O)c(O)c1C2=O ?
Output line: t

Input line: Write down the call the test reported for this compound. Item: Cc1c(N)cccc1Cl
Output line: f

Input line: Just curious, what result did C[Si](C)(C)Cl get here?
Output line: f

Sourced from PubChem BioAssay (NCATS)
